Endpoint summary: IC50, system: Caspase-1 (Homo sapiens), multiple sources combined.
quantity_measured: IC50 (µM)

                                   compound  measured_number
0  O=C[C@@H](NS(=O)(=O)c1ccccc1Oc1ccccc1)C(=O)O               24
1  CC(=O)N[C@H](C(=O)O[C@H]1CCC(C)(C)[C@@H]2CC=C3C(=O)OC[C@@H]3[C@@]12C)C(C)C (relative stereo)              100
2  O=C1C[C@H](NC(=O)[C@@H]2COC[C@@H]3C/C=C\C[C@H](NC(=O)c4cccc(C(F)(F)F)c4)C(=O)N32)C(O)O1 (some centres not stated)            0.009
3  CCCCCCCCCC(=O)[C@@H]1C(=O)O[C@@]2(C)C(=O)C=C3C=C(C[C@H](C)O)OC=C3[C@@H]12              150
4  O=C[C@H](CC(=O)O)NC(=O)[C@@H]1CCCN2C(=O)CC[C@H](NC(=O)c3nccc4ccccc34)C(=O)N12            0.004
5  CC(C)[C@H](CC(=O)NCCn1c(-c2cccnc2)nc2ccccc21)C(=O)N[C@H](C=O)CC(=O)O           0.0265
6  O=C(CN1CC=CC[C@H](NC(=O)c2cc(Cl)ccc2Cl)C1=O)N[C@H]1CC(=O)OC1O (some centres not stated)            0.015

====

Target protein (sequence): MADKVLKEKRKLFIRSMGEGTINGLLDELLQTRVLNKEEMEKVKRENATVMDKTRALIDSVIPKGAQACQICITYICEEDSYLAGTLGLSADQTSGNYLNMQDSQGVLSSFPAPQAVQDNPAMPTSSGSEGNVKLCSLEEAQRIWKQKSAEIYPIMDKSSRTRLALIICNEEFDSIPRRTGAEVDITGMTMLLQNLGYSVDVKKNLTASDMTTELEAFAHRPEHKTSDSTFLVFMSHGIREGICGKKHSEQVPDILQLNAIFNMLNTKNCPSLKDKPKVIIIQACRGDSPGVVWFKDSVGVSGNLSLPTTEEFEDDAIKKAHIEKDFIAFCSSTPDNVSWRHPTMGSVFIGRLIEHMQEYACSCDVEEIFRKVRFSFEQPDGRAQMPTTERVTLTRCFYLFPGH
Endpoint summary: IC50, system: the protein given by its sequence, multiple sources combined.
quantity_measured: IC50 (µM)

>>> df
                                    molecule  quantity_measured  unit_abbreviation  qualifier_sign  measured_number
 0  O=C(CN1CCCN(C(=O)c2ccccc2)C[C@H](NC(=O)c2ccc3ccccc3c2)C1=O)N[C@H]1CC(=O)OC1O (stereo partly specified)               IC50                 µM               =            0.019
 1  COc1cccc(C(=O)NCC2=CC[C@H](NC(=O)c3ccc4ccccc4c3)C(=O)N(CC(=O)N[C@H]3CC(=O)OC3O)C2)c1 (stereo partly specified)               IC50                 µM               =            0.001
 2  N#CC(C#N)=C1C(=O)N(Cc2ccc(OCCOCCF)cc2)c2ccc(S(=O)(=O)N3CCC[C@H]3COc3ccccc3)cc21               IC50                 µM               >               10
 3  COC[C@@H]1CCCN1S(=O)(=O)c1ccc2c(c1)C(=O)C(=O)N2Cc1ccc(OCCOS(=O)(=O)c2ccc(C)cc2)cc1               IC50                 µM               >              500
 4  O=C1C[C@H](NC(=O)[C@@H]2COC[C@@H]3C/C=C\C[C@H](NC(=O)c4ccccc4C(F)(F)F)C(=O)N32)C(O)O1 (stereo partly specified)               IC50                 µM               =             0.05
 5  O=C1C[C@H](NC(=O)[C@@H]2CNC[C@@H]3CCCC[C@H](NC(=O)c4ccccc4)C(=O)N32)C(O)O1 (stereo partly specified)               IC50                 µM               =             0.01
 6  COC[C@@H]1CCCN1S(=O)(=O)c1ccc2c(c1)C(=O)C(=O)N2Cc1ccc(OC)cc1               IC50                 µM               >               10
 7  O=C[C@@H](NS(=O)(=O)c1ccccc1Oc1ccc(-c2ccccc2)cc1)C(=O)O               IC50                 µM               =              4.4
 8  CC(C)[C@H](NC(=O)OCc1ccccc1)C(=O)N[C@@H](C)C(=O)N[C@@H](CC(=O)O)C(=O)CON1C(=O)Cc2ccccc21               IC50                 µM               =            0.003
 9  COc1cccc(C(=O)NNC(=O)C2(C(=O)N[C@H]3CC(=O)OC3O)CCCC2)c1 (stereo partly specified)               IC50                 µM               =              0.2
10  COc1ccc(S(C)(=O)=O)cc1CC(=O)N[C@H](C(=O)N[C@@H](CC(=O)O)C(=O)CSCc1c(F)cccc1Cl)C(C)C               IC50                 µM               =              1.6
11  O=C1C(=O)N(Cc2ccc(F)nc2)c2ccc(S(=O)(=O)N3CCC[C@H]3COc3ccccc3)cc21               IC50                 µM               >               50
12  O=C(CN1CCSC[C@H](NC(=O)c2cccc(C(F)(F)F)c2)C1=O)N[C@H]1CC(=O)OC1O (stereo partly specified)               IC50                 µM               =             0.15
13  CC(C)[C@H](NC/C=C/c1ccccc1)C(=O)N1CC(O)C[C@H]1C(=O)NC(CC(=O)O)C(=O)COc1ccccc1 (stereo partly specified)               IC50                 µM               =            0.013
14  COc1ccc(OC)c(CC(=O)N[C@H](C(=O)N[C@@H](CC(=O)O)C(=O)CSCC2CCCCC2)C(C)C)c1               IC50                 µM               =              1.8
15  O=C1Nc2ccc(S(=O)(=O)N3CCC[C@H]3COc3ccccc3)cc2C1=O               IC50                 µM               >               10

====

Endpoint summary: log10 IC50, system: Caspase-1 (Homo sapiens, UniProt P29466), multiple sources combined.
quantity_measured: log10 IC50 (log10 of the value in µM)

molecule	measured_number
Cc1ccccc1Oc1ccccc1S(=O)(=O)N[C@H](C=O)C(=O)O	1.15
CC(C)(C)CC(NCC(O)CC(=O)[O-])c1nnnn1CCCC(=O)N1CCc2ccccc2C1.[Na+] (stereo not drawn)	1.18
Cc1ccc(Oc2ccccc2S(=O)(=O)N[C@H](C=O)C(=O)O)cc1	0.95
CC(C)[C@H](NC(=O)OCc1ccccc1)C(=O)N[C@@H](C)C(=O)NC(CC(=O)O)C(=O)CCCCCc1ccccc1 (stereo partly drawn)	-0.01
CCC(C)c1ccc(Oc2ccccc2S(=O)(=O)N[C@H](C=O)C(=O)O)cc1 (stereo partly drawn)	0.34
CCOc1ccc(OCC(=O)OC(C)C)cc1CC(=O)N[C@H](C(=O)N[C@@H](CC(=O)O)C(=O)CSCc1c(F)cccc1Cl)C(C)C	0.62
O=C(CN1CCSC[C@H](NC(=O)c2cc3ccccc3s2)C1=O)N[C@H]1CC(=O)OC1O (stereo partly drawn)	-1.10
CC(C)[C@H](CC(=O)NCCn1ccc2ccccc21)C(=O)N[C@H](C=O)CC(=O)O	-1.34
O=C(CN1CC=CC[C@H](NC(=O)c2ccc3ccccc3c2)C1=O)N[C@H]1CC(=O)OC1O (stereo partly drawn)	-1.85
Cc1cccc(C(=O)NNC(=O)C2(C(=O)N[C@H]3CC(=O)OC3O)CCCC2)c1 (stereo partly drawn)	-0.31
O=C1C[C@H](NC(=O)[C@@H]2CCc3nc4cc(-c5ccc(Cl)cc5)nc-4c(O)n32)C(O)O1 (stereo partly drawn)	-1.01
NC(=O)c1cc(-c2ccc(C(F)(F)F)cc2)nnc1Cl	0.70
O=C1C[C@H](NC(=O)[C@@H]2CN(C(=O)OCc3ccccc3)C[C@@H]3C/C=C\C[C@H](NC(=O)c4ccc5ccccc5c4)C(=O)N32)C(O)O1 (stereo partly drawn)	-3.00
